Data provenance: paper PMC9700037

system.name: T1, Intracellularly biotinylated Avi-His6-tev-DPP9 (UniProt Q86TI2 1-863, biotin (on the Avi tag))
T1 construct: dipeptidyl peptidase 9 (DPP9); also called biotin-DPP9; immobilized DPP9; source: Sf9 insect cells, intracellularly biotinylated, purified; not shown: Avi, N-terminal, kept; His6, N-terminal, kept
protocol.description: SPR; biotinylated Avi-His6-tev-DPP9 immobilised on a Series S SA chip (Biacore 8K); monomeric fraction of FIIND proteins (or GST) injected, single-cycle kinetics, 78.125-5000 nM (S1213A from 39.06 nM), 10 mM Hepes pH 7.5, 150 mM NaCl, 0.5 mM TCEP, 0.05% Tween-20
experimental.context: both partners purified
measured.property: Kd (nM)
Use nM as the unit, but write only the number.

Qu. Identify measured Kd associated with NLRP1-FIIND (wt) (domain or fragment, human, UniProt Q9C000 1064-1376, looked up, NLRP1 FIIND domain (ZU5-UPA), human, residues 1064-1376 of isoform 1; GST is still on the protein during the GST pull-down of the co-expression experiments and is cut off by TEV before SEC, SEC-MALS and SPR; also called wt FIIND protein; NLRP1 FIIND domain; source: also co-expressed with His6-DPP9 and SUMO-UPA in Sf9; not shown: GST, N-terminal, cleaved) SQGDLHTKPLGTDDDFWGPTGPVATEVVDKEKNLYRVHFPVAGSYRWPNTGLCFVMREAVTVEIEFCVWDQFLGEINPQHSWMVAGPLLDIKAEPGAVEAVHLPHFVALQGGHVDTSLFQMAHFKEEGMLLEKPARVELHHIVLENPSFSPLGVLLKMIHNALRFIPVTSVVLLYHRVHPEEVTFHLYLIPSDCSIRKAIDDLEMKFQFVRIHKPPPLTPLYMGCRYTVSGSGSGMLEILPKELELCYRSPGEDQLFSEFYVGHLGSGIRLQVKDKKDETLVWEALVKPGDLMPATTLIPPARIAVPSPLDAP
Ans. 1900
